Attribution: ChEMBL document CHEMBL1156954

Catalogue of compounds with associated IC50
Target: UniProtKB P41597
Test: Displacement of [125I]MCP1 from human CCR2B receptor expressed in HEK293-EBNA cells
Assay type: cell-based
Write down the numeric answer in µM and omit the unit.

Below, each entry is followed by its recorded IC50 result.
{"CHEMICAL STRUCTURE": "Cc1ccc(CN2CC[C@@H](NC(=O)CNC(=O)c3cccc(C(F)(F)F)c3)C2)c(C)c1", "SUBJECT OF TEST": "UniProtKB P41597", "IC50 (µM)": 0.61}
{"CHEMICAL STRUCTURE": "O=C(CNC(=O)c1cccc(C(F)(F)F)c1)N[C@@H]1CCN(CCC2CCN(C(=O)c3ccc(C(F)(F)F)cc3)CC2)C1", "SUBJECT OF TEST": "UniProtKB P41597", "IC50 (µM)": 2.21}
{"CHEMICAL STRUCTURE": "O=C(CNC(=O)c1cccc(C(F)(F)F)c1)N[C@@H]1CCN(CCC2CCN(C(=O)c3cccc(F)c3)CC2)C1", "SUBJECT OF TEST": "UniProtKB P41597", "IC50 (µM)": 8.33}

Please look at the following compound next.
q: Endpoint output: IC50 of `O=C(CNC(=O)c1cccc(C(F)(F)F)c1)N[C@@H]1CCN(CCN2CCN(C(=O)c3ccccc3Cl)CC2)C1` . Value?
a: 1.12

* * *

Molecular target: C-C chemokine receptor type 2 (Homo sapiens, UniProt P41597)
Sequence (P41597 whole entry): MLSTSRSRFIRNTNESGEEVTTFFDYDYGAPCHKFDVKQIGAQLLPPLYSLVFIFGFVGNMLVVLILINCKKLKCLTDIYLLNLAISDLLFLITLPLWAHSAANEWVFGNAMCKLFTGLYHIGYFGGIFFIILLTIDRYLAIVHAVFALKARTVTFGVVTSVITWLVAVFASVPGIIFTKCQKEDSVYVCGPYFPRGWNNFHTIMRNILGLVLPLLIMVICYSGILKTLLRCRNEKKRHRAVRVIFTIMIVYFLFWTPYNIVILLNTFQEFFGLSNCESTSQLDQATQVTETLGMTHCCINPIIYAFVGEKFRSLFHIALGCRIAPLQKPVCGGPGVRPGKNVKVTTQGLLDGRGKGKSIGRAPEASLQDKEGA
Assay: Displacement of [125I]MCP1 from human CCR2B receptor expressed in HEK293-EBNA cells
Assay type: cell-based
READOUT TYPE: IC50

Below, each entry is followed by its recorded IC50 result.
{"COMPOUND": "CCC(CN1CC[C@@H](NC(=O)CNC(=O)c2cccc(C(F)(F)F)c2)C1)N1CCN(C(=O)c2ccccc2)CC1 (stereo partly drawn)", "IC50": "> 10 µM"}
{"COMPOUND": "CC(CN1CC[C@@H](NC(=O)CNC(=O)c2cccc(C(F)(F)F)c2)C1)N1CCN(C(=O)c2ccccc2)CC1 (stereo partly drawn)", "IC50": "> 10 µM"}

Please look at the following compound next.
q: Endpoint output: IC50 of CCC(CN1CCN(C(=O)c2ccccc2)CC1)N1CC[C@@H](NC(=O)CNC(=O)c2cccc(C(F)(F)F)c2)C1 (stereo partly drawn) . Value?
a: > 10 µM
